assay info: AUC (2 to 24 hrs) in Sprague-Dawley rat liver at 10 mg/kg, iv by LC/MS/MS analysis
Format: ADME, organism-based
Parameters: time 2-24 hr, dose 10 mg/kg, route intravenous
quantity: AUC(0-t) (µg·h/mL)
Give your result in µg·h/mL as a bare value.

What AUC(0-t) value was documented for this compound, C/C=C/C[C@@H](C)[C@@H](O)[C@H]1C(=O)N[C@@H](CC)C(=O)N(C)C(SCCN(C)C)C(=O)N(C)[C@@H](CC(C)(C)O)C(=O)N[C@@H](C(C)C)C(=O)N(C)[C@@H](CC(C)C)C(=O)N[C@@H](C)C(=O)N[C@H](C)C(=O)N(C)[C@@H](CC(C)C)C(=O)N(C)[C@@H](CC(C)C)C(=O)N(C)[C@@H](C(C)C)C(=O)N1C (single isomer, unassigned) [SCY 635] ?
139

* * *

Test system: Hepatocyte
assay info: Cellular uptake in human hepatocytes assessed per mg of cellular protein association with hepatocyte fraction at 0.378 uM after 1 hr by LC/MS/MS analysis
Assay type: ADME, cell-based
quantity: Drug uptake
Report as: number unit

Suppose we examine the molecule C/C=C/C[C@@H](C)[C@@H](O)[C@H]1C(=O)N[C@@H](CC)C(=O)N(C)C(SCCN(C)C)C(=O)N(C)[C@@H](CC(C)(C)O)C(=O)N[C@@H](C(C)C)C(=O)N(C)[C@@H](CC(C)C)C(=O)N[C@@H](C)C(=O)N[C@H](C)C(=O)N(C)[C@@H](CC(C)C)C(=O)N(C)[C@@H](CC(C)C)C(=O)N(C)[C@@H](C(C)C)C(=O)N1C (single isomer, unassigned) ; what Drug uptake value has been reported?
1.03 ng/mg

* * *

assay info: Oral bioavailability in Sprague-Dawley rat at 10 mg/kg after 24 hrs by LC/MS/MS analysis
Assay type: ADME, organism-based
assay context: in vivo
quantity: bioavailability (%)
Note: unit % is implicit; provide only the numeric part.

Looking for the measured bioavailability of C/C=C/C[C@@H](C)[C@@H](O)[C@H]1C(=O)N[C@@H](CC)C(=O)N(C)C(SCCN(C)C)C(=O)N(C)[C@@H](CC(C)(C)O)C(=O)N[C@@H](C(C)C)C(=O)N(C)[C@@H](CC(C)C)C(=O)N[C@@H](C)C(=O)N[C@H](C)C(=O)N(C)[C@@H](CC(C)C)C(=O)N(C)[C@@H](CC(C)C)C(=O)N(C)[C@@H](C(C)C)C(=O)N1C (single isomer, unassigned) , can you help?
23.6

* * *

Test system: Liver microsomes
assay info: Intrinsic clearance in human liver microsomes at 1 uM after 5 to 30 mins by MS analysis in presence of NADPH
Assay type: ADME, Microsome
quantity: clearance

Please report the recorded clearance for C/C=C/C[C@@H](C)[C@@H](O)[C@H]1C(=O)N[C@@H](CC)C(=O)N(C)C(SCCN(C)C)C(=O)N(C)[C@@H](CC(C)(C)O)C(=O)N[C@@H](C(C)C)C(=O)N(C)[C@@H](CC(C)C)C(=O)N[C@@H](C)C(=O)N[C@H](C)C(=O)N(C)[C@@H](CC(C)C)C(=O)N(C)[C@@H](CC(C)C)C(=O)N(C)[C@@H](C(C)C)C(=O)N1C (single isomer, unassigned) [SCY 635] .
14 µL/min/mg

* * *

assay info: Systemic clearance in Sprague-Dawley rat at 2 mg/kg, iv after 24 hrs by LC/MS/MS analysis
Type: ADME, organism-based
Design: dose 2 mg/kg, route intravenous
assay context: in vivo
quantity: clearance (mL/min/kg)
Report the value in mL/min/kg with no unit label.

GET /values?readout=clearance&item= C/C=C/C[C@@H](C)[C@@H](O)[C@H]1C(=O)N[C@@H](CC)C(=O)N(C)C(SCCN(C)C)C(=O)N(C)[C@@H](CC(C)(C)O)C(=O)N[C@@H](C(C)C)C(=O)N(C)[C@@H](CC(C)C)C(=O)N[C@@H](C)C(=O)N[C@H](C)C(=O)N(C)[C@@H](CC(C)C)C(=O)N(C)[C@@H](CC(C)C)C(=O)N(C)[C@@H](C(C)C)C(=O)N1C (single isomer, unassigned)
1.48

* * *

assay info: Cmax in Sprague-Dawley rat liver at 30 mg/kg, po by LC/MS/MS analysis
Assay type: ADME, organism-based
Parameters: dose 30 mg/kg, route oral
quantity: Cmax (ng/mL)
Give a bare numeral; the unit ng/mL is implied.

Request the reported Cmax associated with C/C=C/C[C@@H](C)[C@@H](O)[C@H]1C(=O)N[C@@H](CC)C(=O)N(C)C(SCCN(C)C)C(=O)N(C)[C@@H](CC(C)(C)O)C(=O)N[C@@H](C(C)C)C(=O)N(C)[C@@H](CC(C)C)C(=O)N[C@@H](C)C(=O)N[C@H](C)C(=O)N(C)[C@@H](CC(C)C)C(=O)N(C)[C@@H](CC(C)C)C(=O)N(C)[C@@H](C(C)C)C(=O)N1C (single isomer, unassigned)
16800

* * *

target entity: CYP2B6 (Homo sapiens)
Sequence (P20813 whole entry): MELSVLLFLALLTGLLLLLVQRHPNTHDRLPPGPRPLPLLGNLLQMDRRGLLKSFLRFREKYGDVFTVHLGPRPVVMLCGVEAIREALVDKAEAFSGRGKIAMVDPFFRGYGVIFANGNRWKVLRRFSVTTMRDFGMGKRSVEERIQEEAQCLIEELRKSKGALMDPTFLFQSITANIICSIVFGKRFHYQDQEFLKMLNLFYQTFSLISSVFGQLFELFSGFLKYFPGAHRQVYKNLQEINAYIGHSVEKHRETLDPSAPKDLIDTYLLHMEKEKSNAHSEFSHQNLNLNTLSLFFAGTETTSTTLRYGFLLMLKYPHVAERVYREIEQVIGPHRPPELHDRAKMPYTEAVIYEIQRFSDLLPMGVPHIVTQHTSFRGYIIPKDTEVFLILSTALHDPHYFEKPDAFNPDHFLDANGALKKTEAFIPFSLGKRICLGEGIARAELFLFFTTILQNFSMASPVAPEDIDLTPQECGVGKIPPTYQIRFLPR
assay info: Induction of CYP2B6 in human hepatocytes at 1000 uM after 72 hrs relative to control
Type: ADME, cell-based, Hepatocyte
assay context: read-out: FC
quantity: fold induction at 72 h, 1000 µM
Answer with a bare number; do not write a unit.

# value lookup — system CYP2B6 (Homo sapiens), readout fold induction at 72 h, 1000 µM, item CCC1(c2ccccc2)C(=O)NC(=O)NC1=O
9.1

* * *

assay info: Systemic clearance in monkey at 1.4 mg/kg, iv after 24 hrs by LC/MS/MS analysis
Format: ADME, organism-based, Macaca mulatta
Design: dose 1.4 mg/kg, route intravenous
assay context: rhesus monkey, in vivo
quantity: clearance
A bare number is not enough; add the unit after it.

Look up clearance for this compound: C/C=C/C[C@@H](C)[C@@H](O)[C@H]1C(=O)N[C@@H](CC)C(=O)N(C)C(SCCN(C)C)C(=O)N(C)[C@@H](CC(C)(C)O)C(=O)N[C@@H](C(C)C)C(=O)N(C)[C@@H](CC(C)C)C(=O)N[C@@H](C)C(=O)N[C@H](C)C(=O)N(C)[C@@H](CC(C)C)C(=O)N(C)[C@@H](CC(C)C)C(=O)N(C)[C@@H](C(C)C)C(=O)N1C (single isomer, unassigned) [SCY 635]
0.47 mL/min/kg

* * *

assay info: Cmax in monkey at 5 mg/kg, po after 24 hrs by LC/MS/MS analysis
Format: ADME, organism-based, Macaca mulatta
Design: dose 5 mg/kg, route oral
assay context: rhesus monkey, in vivo
quantity: Cmax (ng/mL)
Dear colleague, please return just the value in ng/mL, with no unit written.

Look at this compound and give its reported Cmax. C/C=C/C[C@@H](C)[C@@H](O)[C@H]1C(=O)N[C@@H](CC)C(=O)N(C)C(SCCN(C)C)C(=O)N(C)[C@@H](CC(C)(C)O)C(=O)N[C@@H](C(C)C)C(=O)N(C)[C@@H](CC(C)C)C(=O)N[C@@H](C)C(=O)N[C@H](C)C(=O)N(C)[C@@H](CC(C)C)C(=O)N(C)[C@@H](CC(C)C)C(=O)N(C)[C@@H](C(C)C)C(=O)N1C (single isomer, unassigned)
1810

* * *

assay info: Apparent elimination half life Sprague-Dawley rat at 10 mg/kg, po after 24 hrs by LC/MS/MS analysis
Type: ADME, organism-based
Parameters: dose 10 mg/kg, route oral
assay context: in vivo
quantity: half-life

Using the record for C/C=C/C[C@@H](C)[C@@H](O)[C@H]1C(=O)N[C@@H](CC)C(=O)N(C)C(SCCN(C)C)C(=O)N(C)[C@@H](CC(C)(C)O)C(=O)N[C@@H](C(C)C)C(=O)N(C)[C@@H](CC(C)C)C(=O)N[C@@H](C)C(=O)N[C@H](C)C(=O)N(C)[C@@H](CC(C)C)C(=O)N(C)[C@@H](CC(C)C)C(=O)N(C)[C@@H](C(C)C)C(=O)N1C (single isomer, unassigned) [SCY 635] , report its half-life.
21.4 h

* * *

assay info: Cmax in Sprague-Dawley rat at 5 mg/kg, iv after 24 hrs by LC/MS/MS analysis
Assay type: ADME, organism-based
Set-up: dose 5 mg/kg, route intravenous
assay context: in vivo
quantity: Cmax (ng/mL)
Express your answer in ng/mL, writing the number without its unit.

What does the record list as Cmax for C/C=C/C[C@@H](C)[C@@H](O)[C@H]1C(=O)N[C@@H](CC)C(=O)N(C)C(SCCN(C)C)C(=O)N(C)[C@@H](CC(C)(C)O)C(=O)N[C@@H](C(C)C)C(=O)N(C)[C@@H](CC(C)C)C(=O)N[C@@H](C)C(=O)N[C@H](C)C(=O)N(C)[C@@H](CC(C)C)C(=O)N(C)[C@@H](CC(C)C)C(=O)N(C)[C@@H](C(C)C)C(=O)N1C (single isomer, unassigned) ?
2990

* * *

assay info: AUC (0 to infinity) in Sprague-Dawley rat at 5 mg/kg, po after 24 hrs by LC/MS/MS analysis
Assay type: ADME, organism-based
Design: time infinity, dose 5 mg/kg, route oral
assay context: plasma
quantity: AUC(0-inf) (ng·h/mL)
Could you give me the number in ng·h/mL? Just the number is fine.

For the compound shown here, C/C=C/C[C@@H](C)[C@@H](O)[C@H]1C(=O)N[C@@H](CC)C(=O)N(C)C(SCCN(C)C)C(=O)N(C)[C@@H](CC(C)(C)O)C(=O)N[C@@H](C(C)C)C(=O)N(C)[C@@H](CC(C)C)C(=O)N[C@@H](C)C(=O)N[C@H](C)C(=O)N(C)[C@@H](CC(C)C)C(=O)N(C)[C@@H](CC(C)C)C(=O)N(C)[C@@H](C(C)C)C(=O)N1C (single isomer, unassigned) , give the reported AUC(0-inf).
13000
